Ref: ChEMBL document CHEMBL4392832

target: UniProt:Q14833; assay: Negative allosteric modulation of mGlu4 receptor (unknown origin)
Sequence (Q14833 whole entry): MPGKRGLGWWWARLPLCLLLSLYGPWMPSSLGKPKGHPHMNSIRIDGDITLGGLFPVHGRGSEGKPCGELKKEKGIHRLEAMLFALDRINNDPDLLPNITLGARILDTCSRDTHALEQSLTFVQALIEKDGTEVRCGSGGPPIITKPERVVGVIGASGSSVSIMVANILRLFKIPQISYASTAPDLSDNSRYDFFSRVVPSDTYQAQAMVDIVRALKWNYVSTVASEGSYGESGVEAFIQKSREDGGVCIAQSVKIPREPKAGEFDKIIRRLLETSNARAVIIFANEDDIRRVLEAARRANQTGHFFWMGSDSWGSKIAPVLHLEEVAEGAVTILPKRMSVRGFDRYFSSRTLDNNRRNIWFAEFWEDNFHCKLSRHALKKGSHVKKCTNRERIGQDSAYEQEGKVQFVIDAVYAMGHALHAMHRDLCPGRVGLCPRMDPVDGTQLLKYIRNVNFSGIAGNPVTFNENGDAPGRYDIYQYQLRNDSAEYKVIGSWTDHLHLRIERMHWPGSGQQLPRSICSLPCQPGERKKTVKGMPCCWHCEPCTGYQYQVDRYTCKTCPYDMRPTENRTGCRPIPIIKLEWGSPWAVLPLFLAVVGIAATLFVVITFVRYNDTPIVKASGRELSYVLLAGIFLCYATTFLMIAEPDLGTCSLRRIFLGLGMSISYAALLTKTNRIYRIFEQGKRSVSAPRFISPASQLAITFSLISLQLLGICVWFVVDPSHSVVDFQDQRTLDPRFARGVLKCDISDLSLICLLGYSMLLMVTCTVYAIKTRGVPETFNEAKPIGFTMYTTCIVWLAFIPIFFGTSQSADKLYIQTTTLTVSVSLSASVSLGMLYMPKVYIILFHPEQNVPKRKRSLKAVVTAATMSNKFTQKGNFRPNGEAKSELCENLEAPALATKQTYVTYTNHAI
pIC50: −log10 of the molar value.
result-type: pIC50

Please report the recorded pIC50 for COc1ccc(-c2nnc(-c3cc(OC(F)(F)F)ccc3-n3ccnc3)o2)cc1OC .
< 5.00

----------
biological target: Metabotropic glutamate receptor 3 (Homo sapiens); test: Negative allosteric modulation of mGlu3 receptor (unknown origin)
Sequence (Q14832 whole entry): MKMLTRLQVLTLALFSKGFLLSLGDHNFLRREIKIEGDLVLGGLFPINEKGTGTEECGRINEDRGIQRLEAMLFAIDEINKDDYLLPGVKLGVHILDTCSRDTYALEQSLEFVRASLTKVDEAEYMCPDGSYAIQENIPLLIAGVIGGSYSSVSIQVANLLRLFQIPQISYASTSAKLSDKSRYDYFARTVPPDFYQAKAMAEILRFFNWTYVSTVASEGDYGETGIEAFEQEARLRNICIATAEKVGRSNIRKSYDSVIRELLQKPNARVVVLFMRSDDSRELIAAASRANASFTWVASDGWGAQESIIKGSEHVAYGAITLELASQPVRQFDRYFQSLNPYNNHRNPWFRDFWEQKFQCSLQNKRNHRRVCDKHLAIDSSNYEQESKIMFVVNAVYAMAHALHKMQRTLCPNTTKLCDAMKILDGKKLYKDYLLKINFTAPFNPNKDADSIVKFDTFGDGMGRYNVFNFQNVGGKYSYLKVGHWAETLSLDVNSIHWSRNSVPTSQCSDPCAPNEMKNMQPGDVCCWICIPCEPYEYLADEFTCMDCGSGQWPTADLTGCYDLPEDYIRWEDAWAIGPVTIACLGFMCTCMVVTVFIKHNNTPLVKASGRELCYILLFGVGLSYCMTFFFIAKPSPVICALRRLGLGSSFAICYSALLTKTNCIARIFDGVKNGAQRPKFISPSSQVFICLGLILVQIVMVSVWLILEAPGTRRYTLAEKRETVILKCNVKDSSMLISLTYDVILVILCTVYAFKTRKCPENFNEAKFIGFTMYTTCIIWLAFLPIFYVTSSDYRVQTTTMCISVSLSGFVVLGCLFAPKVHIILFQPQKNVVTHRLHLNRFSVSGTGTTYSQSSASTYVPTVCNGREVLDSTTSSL
result-type: IC50

Recall the recorded IC50 for COc1ccc(-c2nnc(-c3cc(OC(F)(F)F)ccc3-n3ccnc3)o2)cc1OC with Metabotropic glutamate receptor 3 (Homo sapiens) and state it.
> 10 µM

----------
biological target: Metabotropic glutamate receptor 7 (Rattus norvegicus); assay: Negative allosteric modulation of rat mGlu7 receptor expressed in HEK cells co-expressing Galpha15 assessed as minimum L-AP4 response by measuring reduction in calcium mobilization incubated for 142 secs prior to glutamate addition for 120 secs followed by L-AP4 addition and measured after 40 secs by Fluo-4 AM dye based fluorescence assay relative to L-AP4 alone; format: functional, cell-based; design: scale not given: the % may be the effect or the level left
Sequence (P35400 whole entry): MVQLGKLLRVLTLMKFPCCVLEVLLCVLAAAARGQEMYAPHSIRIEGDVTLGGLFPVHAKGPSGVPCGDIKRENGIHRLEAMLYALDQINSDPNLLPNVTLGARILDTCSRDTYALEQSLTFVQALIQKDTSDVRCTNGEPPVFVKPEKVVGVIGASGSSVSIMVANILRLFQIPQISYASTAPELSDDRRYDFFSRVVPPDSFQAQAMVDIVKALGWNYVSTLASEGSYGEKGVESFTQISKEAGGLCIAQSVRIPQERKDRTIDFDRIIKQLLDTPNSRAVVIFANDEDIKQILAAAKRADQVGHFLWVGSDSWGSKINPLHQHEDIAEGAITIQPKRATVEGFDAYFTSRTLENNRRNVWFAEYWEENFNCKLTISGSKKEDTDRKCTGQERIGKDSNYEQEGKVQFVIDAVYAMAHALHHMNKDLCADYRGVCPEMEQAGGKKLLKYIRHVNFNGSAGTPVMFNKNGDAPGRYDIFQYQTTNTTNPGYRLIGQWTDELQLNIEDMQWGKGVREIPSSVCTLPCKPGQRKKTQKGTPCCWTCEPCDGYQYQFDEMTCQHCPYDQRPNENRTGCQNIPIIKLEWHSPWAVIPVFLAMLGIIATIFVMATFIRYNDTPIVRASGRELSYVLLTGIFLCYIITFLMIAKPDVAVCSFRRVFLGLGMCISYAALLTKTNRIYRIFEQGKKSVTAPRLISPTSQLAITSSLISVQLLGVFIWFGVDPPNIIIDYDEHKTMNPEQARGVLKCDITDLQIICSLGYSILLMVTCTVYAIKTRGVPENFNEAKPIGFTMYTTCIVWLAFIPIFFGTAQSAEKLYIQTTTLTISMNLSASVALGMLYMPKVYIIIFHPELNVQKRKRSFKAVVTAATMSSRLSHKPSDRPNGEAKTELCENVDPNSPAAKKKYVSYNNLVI
result-type: Activity (%)
Reply numerically in %, unit not repeated.

Please report the recorded Activity for COc1ccc(-c2nsc(-c3cc(OC(F)(F)F)ccc3-n3cncn3)n2)cc1OC .
41.5

Please report the recorded Activity for COc1cc(-c2nnc(-c3cc(OC(F)(F)F)ccc3-n3cncn3)o2)ccc1OC1CCC1 .
10.4

Please report the recorded Activity for COc1cc(-c2nnc(-c3cc(OC(F)(F)F)ccc3-n3cncn3)o2)cnc1OC .
13.5

Please report the recorded Activity for COc1ccc(-c2coc(-c3cc(OC(F)(F)F)ccc3-n3cncn3)n2)cc1OC .
21.1

Please report the recorded Activity for COc1ccc(-c2nnc(-c3cc(OC(F)(F)F)ccc3-c3ccncc3)o2)cc1OC .
27.9

Please report the recorded Activity for COc1ccc(-c2nnc(-c3cc(OC(F)(F)F)ccc3-c3ccnnc3)o2)cc1OC .
27.6

Please report the recorded Activity for COc1ccc(-c2nc(-c3cc(OC(F)(F)F)ccc3-n3cncn3)no2)cc1OC .
8.4

Please report the recorded Activity for COc1ccc(-c2cn(-c3cc(OC(F)(F)F)ccc3-n3cncn3)nn2)cc1OC .
32.4

Please report the recorded Activity for COc1ccc(-c2nnc(-c3cc(OC(F)(F)F)ccc3-c3cscn3)o2)cc1OC .
49.2

Please report the recorded Activity for COc1ccc(-c2noc(-c3cc(OC(F)(F)F)ccc3-n3cncn3)n2)cc1OC .
14.5

Please report the recorded Activity for COc1ccc(-c2c[nH]c(-c3cc(OC(F)(F)F)ccc3-n3cncn3)n2)cc1OC .
34.2

Please report the recorded Activity for COc1ccc(-c2nnc(-c3cc(OC(F)(F)F)ccc3-c3cn[nH]c3)o2)cc1OC .
10.3

----------
biological target: Metabotropic glutamate receptor 7 (Rattus norvegicus); experiment: Negative allosteric modulation of rat mGlu7 receptor expressed in HEK cells co-expressing Galpha15 assessed as reduction in calcium mobilization incubated for 142 secs prior to glutamate addition for 120 secs followed by L-AP4 addition and measured after 40 secs by Fluo-4 AM dye based fluorescence assay; assay type: functional, cell-based; conditions: read-out: IC50
Give IC50 for every item shown.
Reply numerically in µM, unit not repeated.

Please report the recorded IC50 for COc1ccc(-c2nnc(-c3cc(OC(F)(F)F)ccc3-c3cn[nH]c3)o2)cc1OC .
2.24

Please report the recorded IC50 for COc1ccc(-c2nc(-c3cc(OC(F)(F)F)ccc3-n3cncn3)no2)cc1OC .
2.39

Please report the recorded IC50 for COc1cc(-c2nnc(-c3cc(OC(F)(F)F)ccc3-n3cncn3)o2)ccc1OCC1CC1 .
1.31

Please report the recorded IC50 for COc1ccc(-c2nnc(-c3cc(OC(F)(F)F)ccc3-n3ccnc3)o2)cc1OC .
0.57

Please report the recorded IC50 for COc1ccc(-c2nnc(-c3cc(OC(F)(F)F)ccc3N3CCOCC3)o2)cc1OC .
1.18

Please report the recorded IC50 for COc1ccc(-c2nnc(-c3cc(OC(F)(F)F)ccc3-c3cscn3)o2)cc1OC .
3.53

Please report the recorded IC50 for COc1ccc(-c2noc(-c3cc(OC(F)(F)F)ccc3-n3cncn3)n2)cc1OC .
1.32

Please report the recorded IC50 for COc1ccc(-c2coc(-c3cc(OC(F)(F)F)ccc3-n3cncn3)n2)cc1OC .
7.63

Please report the recorded IC50 for COc1ccc(-c2cnc(-c3cc(OC(F)(F)F)ccc3-n3cncn3)o2)cc1OC .
2.08
